This collection of values is drawn from paper PMC10900215.

Listing: viability at 72 h, 5 µM of selected compounds
testDescription: Cell viability assay (CellTiter-Glo) on MOLM-13
Format: cell-based
conditionSummary: human, MOLM-13 cells, 5 µM, average of two biological replicates
Method: MOLM-13, NOMO-1, THP-1, Kasumi-1, PC3, and DU145 cell lines were obtained from DSMZ-German Collection of Microorganisms and Cell Cultures GmbH. […] Cell viability was determined using a CellTiter-Glo luminescent cell viability assay (Promega) based on the detection of ATP according to the manufacturer’s instructions. […] Background luminescence value was obtained from wells containing the CellTiter-Glo reagent and medium without cells. The resulting data was analyzed in GraphPad Prism 9.
testReadout: viability at 72 h, 5 µM (%)

compound | measuredResult
CC1(C)CCN(Cc2cc(F)c(N3CC(=O)NC4(CCN(c5cc(NCc6cccc(CNC(=O)CCCNc7cccc8c7C(=O)N(C7CCC(=O)NC7=O)C8=O)c6)ncn5)CC4)C3)cc2F)CC1 (stereo not shown) | 102
CC1(C)CCN(Cc2cc(F)c(N3CC(=O)NC4(CCN(c5cc(NCCN6CCN(c7cnc(N8CCN(C(=O)CCCNc9cccc%10c9C(=O)N(C9CCC(=O)NC9=O)C%10=O)CC8)nc7)CC6)ncn5)CC4)C3)cc2F)CC1 (stereo not shown) | 97.7
CC1(C)CCN(Cc2cc(F)c(N3CC(=O)NC4(CCN(c5cc(NCc6cccc(CNC(=O)CCCCCNc7cccc8c7C(=O)N(C7CCC(=O)NC7=O)C8=O)c6)ncn5)CC4)C3)cc2F)CC1 (stereo not shown) | 89.4
CC1(C)CCN(Cc2cc(F)c(N3CC(=O)NC4(CCN(c5cc(NCc6cccc(CNC(=O)CCCCCCCCCCn7cc(CNc8cccc9c8C(=O)N(C8CCC(=O)NC8=O)C9=O)nn7)c6)ncn5)CC4)C3)cc2F)CC1 (stereo not shown) | 89.5
CC1(C)CCN(Cc2cc(F)c(N3CC(=O)NC4(CCN(c5cc(NCc6cccc(CNC(=O)CCCCCCCCCCNc7cccc8c7CN(C7CCC(=O)NC7=O)C8=O)c6)ncn5)CC4)C3)cc2F)CC1 (stereo not shown) | 106
CC1(C)CCN(Cc2cc(F)c(N3CC(=O)NC4(CCN(c5cc(NCCN6CCN(C(=O)CCCCCCCNc7cccc8c7C(=O)N(C7CCC(=O)NC7=O)C8=O)CC6)ncn5)CC4)C3)cc2F)CC1 (stereo not shown) | 85.2
CC1(C)CCN(Cc2cc(F)c(N3CC(=O)NC4(CCN(c5cc(NCc6cn(CCCCCCCCC(=O)Nc7cccc8c7CN(C7CCC(=O)NC7=O)C8=O)nn6)ncn5)CC4)C3)cc2F)CC1 (stereo not shown) | 96.6
CC1(C)CCN(Cc2cc(F)c(N3CC(=O)NC4(CCN(c5cc(NCCN6CCN(C(=O)CCCCCNc7cccc8c7C(=O)N(C7CCC(=O)NC7=O)C8=O)CC6)ncn5)CC4)C3)cc2F)CC1 (stereo not shown) | 82.5
CC1(C)CCN(Cc2cc(F)c(N3CC(=O)NC4(CCN(c5cc(NCCN6CCN(c7cccc8c7C(=O)N(C7CCC(=O)NC7=O)C8=O)CC6)ncn5)CC4)C3)cc2F)CC1 (stereo not shown) | 91.5
CC1(C)CCN(Cc2cc(F)c(N3CC(=O)NC4(CCN(c5cc(NCc6cn(CCCCCCCCCCC(=O)Nc7cccc8c7CN(C7CCC(=O)NC7=O)C8=O)nn6)ncn5)CC4)C3)cc2F)CC1 (stereo not shown) | 95.5
